Measured IC50 of individual entries
Biological target: Apelin receptor (Homo sapiens)
Assay: antagonism across CCR6, APJ and CXCR6 receptors, profiling panel, selectivity assay for CXCR6 antagonist project, cell-based, CHO-K1 PathHunter beta-arrestin, luminescence, set 3 (AID 651708)
Details: antagonist mode, APJ, run 1

// below: answered molecules
[[record]]
molecule = "COc1cc(C(=O)NC2CC3CCCC(C2)N3CC(=O)Nc2ccccc2)cc(OC)c1OC (stereo not given)"
parameter_measured = "IC50"
obs_value = "> 79 µM"

[[record]]
molecule = "Cc1ccc(NC(=O)CN2C3CCCC2CC(NC(=O)c2ccc4c(c2)OCO4)C3)cc1 (stereo not given)"
parameter_measured = "IC50"
obs_value = "> 79 µM"

[[record]]
molecule = "COc1cc(C(=O)NC2CC3CCCC(C2)N3CC(=O)Nc2ccccc2Cl)cc(OC)c1OC (stereo not given)"
parameter_measured = "IC50"
obs_value = "> 79 µM"

[[record]]
molecule = "COc1ccc(CN2C3CCCC2CC(NC(=O)c2cc(OC)c(OC)c(OC)c2)C3)cc1 (stereo not given)"
parameter_measured = "IC50"
obs_value = "10.1 µM"

[[record]]
molecule = "COc1cccc(C(=O)NC2CC3CCCC(C2)N3CC(=O)Nc2ccc(C)cc2)c1 (stereo not given)"
parameter_measured = "IC50"
obs_value = "> 79 µM"


Ask: Indicate its recorded IC50; the molecule in question is COc1ccccc1NC(=O)CN1C2CCCC1CC(NC(=O)c1cc(OC)c(OC)c(OC)c1)C2 (stereo not given)
Reply: > 79 µM

Ask: Indicate its recorded IC50; the molecule in question is COc1ccc(NC(=O)CN2C3CCCC2CC(NC(=O)c2ccc4c(c2)OCO4)C3)cc1 (stereo not given)
Reply: > 79 µM

Ask: Indicate its recorded IC50; the molecule in question is O=C(CN1C2CCCC1CC(NC(=O)c1ccc3c(c1)OCO3)C2)Nc1ccc(Cl)cc1 (stereo not given)
Reply: > 79 µM

Ask: Indicate its recorded IC50; the molecule in question is COc1cc(C(=O)NC2CC3CCCC(C2)N3CC(=O)Nc2ccc(F)cc2)cc(OC)c1OC (stereo not given)
Reply: > 79 µM

Ask: Indicate its recorded IC50; the molecule in question is COc1cc(OC)cc(C(=O)NC2CC3CCCC(C2)N3CC(=O)Nc2ccc(F)cc2)c1 (stereo not given)
Reply: > 79 µM

Ask: Indicate its recorded IC50; the molecule in question is COc1cccc(C(=O)NC2CC3CCCC(C2)N3CC(=O)Nc2ccc(F)cc2)c1 (stereo not given)
Reply: > 79 µM

Ask: Indicate its recorded IC50; the molecule in question is COc1ccc(C(=O)NC2CC3CCCC(C2)N3CC(=O)Nc2ccc(C)cc2)cc1 (stereo not given)
Reply: > 79 µM

src = PubChem BioAssay AID651708
